experimental_target: Beta-2 adrenergic receptor (Homo sapiens)
Sequence (P07550 whole entry): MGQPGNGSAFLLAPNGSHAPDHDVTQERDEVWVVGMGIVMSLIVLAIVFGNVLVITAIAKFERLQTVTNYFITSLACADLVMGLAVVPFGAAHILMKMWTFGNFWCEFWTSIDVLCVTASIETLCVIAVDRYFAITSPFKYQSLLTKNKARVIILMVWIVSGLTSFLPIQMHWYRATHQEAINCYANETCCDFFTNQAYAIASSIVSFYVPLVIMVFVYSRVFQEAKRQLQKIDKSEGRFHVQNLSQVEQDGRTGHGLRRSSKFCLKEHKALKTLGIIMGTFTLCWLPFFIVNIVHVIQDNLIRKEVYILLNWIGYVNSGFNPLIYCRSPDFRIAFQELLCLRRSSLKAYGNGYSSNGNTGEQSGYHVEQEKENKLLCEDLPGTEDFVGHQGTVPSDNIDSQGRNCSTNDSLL
procedure_text: beta2AR agonists driving receptor internalization, dose response, cell-based, FAP fluorogen, flow cytometry, cherry pick 1 (AID 588763)
Type: functional
Calls of active or inactive are those of the source. How the calls were made is not given here.
Labels: y = active, n = inactive

[[record]]
compound = "CCC(=O)c1ccc(OCC(=O)N2CCN(CC(=O)Nc3ccc(C)cc3)CC2)cc1"
experimental_target = "Beta-2 adrenergic receptor (Homo sapiens)"
class_label = "y"

[[record]]
compound = "O=C(Nc1cccc(-c2nc3ccccc3s2)c1)c1cccs1"
experimental_target = "Beta-2 adrenergic receptor (Homo sapiens)"
class_label = "n"

[[record]]
compound = "CCCCOc1cccc(C(=O)Nc2ccc(NC(=O)c3cccs3)cc2)c1"
experimental_target = "Beta-2 adrenergic receptor (Homo sapiens)"
class_label = "y"

[[record]]
compound = "CC(=O)Nc1cc(C(=O)OC(C(=O)c2ccccc2)c2ccccc2)ccc1C (stereo unspecified)"
experimental_target = "Beta-2 adrenergic receptor (Homo sapiens)"
class_label = "y"

[[record]]
compound = "COCCCNc1ncnc2c1sc1nc(-c3ccco3)c3c(c12)CC(C)(C)OC3"
experimental_target = "Beta-2 adrenergic receptor (Homo sapiens)"
class_label = "y"

[[record]]
compound = "COc1ccc([C@H]2/C=C\\CN(Cc3ccc(N(C)C)cc3)[C@@H](C)C(=O)N2Cc2ccc(F)cc2)cc1"
experimental_target = "Beta-2 adrenergic receptor (Homo sapiens)"
class_label = "y"


Recorded values, source ChEMBL document CHEMBL1201862.
